These entries and their values trace back to patent US9650361B2.

assayed_target: CDK9/CycT1 (Homo sapiens, UniProt P50750)
Construct: Recombinant full-length His-tagged human CDK9 and CycT1; His; purchased Invitrogen PV4131; host or cells: insect cells
Sequence (P50750 whole entry): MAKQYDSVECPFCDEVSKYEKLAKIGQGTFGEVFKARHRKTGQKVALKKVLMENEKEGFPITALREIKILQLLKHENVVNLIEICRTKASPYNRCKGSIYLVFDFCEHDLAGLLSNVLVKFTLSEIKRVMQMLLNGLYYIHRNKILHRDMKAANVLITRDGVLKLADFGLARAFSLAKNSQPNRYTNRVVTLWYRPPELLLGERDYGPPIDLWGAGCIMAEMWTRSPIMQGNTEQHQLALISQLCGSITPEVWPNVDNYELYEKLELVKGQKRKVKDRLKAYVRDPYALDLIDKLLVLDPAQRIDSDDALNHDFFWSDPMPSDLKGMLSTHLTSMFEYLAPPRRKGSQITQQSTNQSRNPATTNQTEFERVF
Sequence (O60563 whole entry partner): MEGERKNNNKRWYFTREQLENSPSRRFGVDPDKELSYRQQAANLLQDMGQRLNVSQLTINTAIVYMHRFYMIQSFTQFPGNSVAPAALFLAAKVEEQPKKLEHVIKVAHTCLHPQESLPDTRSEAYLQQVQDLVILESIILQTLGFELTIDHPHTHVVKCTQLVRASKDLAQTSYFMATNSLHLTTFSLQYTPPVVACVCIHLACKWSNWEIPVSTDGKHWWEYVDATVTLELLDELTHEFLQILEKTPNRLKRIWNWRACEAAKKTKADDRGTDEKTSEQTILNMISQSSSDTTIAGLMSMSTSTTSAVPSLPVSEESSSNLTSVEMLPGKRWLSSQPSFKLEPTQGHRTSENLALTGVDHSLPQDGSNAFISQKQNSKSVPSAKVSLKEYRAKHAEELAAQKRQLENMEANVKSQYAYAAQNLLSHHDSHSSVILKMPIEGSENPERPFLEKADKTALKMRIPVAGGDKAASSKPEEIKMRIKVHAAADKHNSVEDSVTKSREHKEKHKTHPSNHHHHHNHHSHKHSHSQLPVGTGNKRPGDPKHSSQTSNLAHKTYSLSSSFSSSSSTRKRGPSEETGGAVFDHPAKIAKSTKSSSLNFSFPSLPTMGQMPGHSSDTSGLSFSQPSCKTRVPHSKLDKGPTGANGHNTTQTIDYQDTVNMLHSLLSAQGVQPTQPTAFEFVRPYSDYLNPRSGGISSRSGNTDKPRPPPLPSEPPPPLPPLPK
test_summary: CDK9/CycT1 high ATP kinase assay (Method 1b)
Assay type: biochemical
stated_conditions: 2 mM ATP
pIC50: −log10 of the molar value.
observable: pIC50

Reference set (5 entries):
INSERT INTO results (compound, observed_value) VALUES
  ('COc1cc(F)ccc1-c1cc(Nc2cc(CS(C)(=N)=O)ccn2)ncn1 (single isomer, unassigned) [Example 3]', 8.00),
  ('COc1cc(F)ccc1-c1cc(Nc2cc(CS(C)(=N)=O)ccn2)ncn1 (racemic) [Example 1]', 7.31),
  ('CCS(=N)(=O)Cc1ccnc(Nc2cc(-c3ccc(F)cc3OC)ncn2)c1 (racemic)', 6.71),
  ('COc1cc(F)ccc1-c1cc(Nc2cc(CS(C)(=N)=O)cc(C)n2)ncn1 (single isomer, unassigned) [Example 9]', 8.70),
  ('COc1cc(F)ccc1-c1cc(Nc2cc(CS(C)(=N)=O)cc(Cl)n2)ncn1 (racemic) [Example 4]', 7.96);

a = COc1cc(F)ccc1-c1cc(Nc2cc(CS(C)(=N)=O)cc(Cl)n2)ncn1 (single isomer, unassigned) [Example 5]
b = COc1cc(F)ccc1-c1cc(Nc2cc(CS(C)(=N)=O)cc(Cl)n2)ncn1 (single isomer, unassigned) [Example 6]
c = COc1cc(F)ccc1-c1cc(Nc2cc(CS(C)(=N)=O)cc(C(F)(F)F)n2)ncn1 (racemic)
d = COc1cc(F)ccc1-c1cc(Nc2cc(CS(C)(=N)=O)ccn2)ncn1 (single isomer, unassigned) [Example 2]
# ascending order, key=pIC50 Rank the items, then write their labels in that order.
d, a, b, c
